# test_target: HIV-1 Protease (Human immunodeficiency virus type 1 group M subtype B, UniProt P04585)
# Construct: purchased Bachem Bioscience Inc
# protocol_text: HIV Protease Inhibition (hydrolysis of undecapeptide Substrate III, HPLC)
# Format: biochemical
# assay_context: pH 4.7, 37° C., 40 μM substrate, 2% DMSO, 5 minutes; read-out: 50% Inhibition Concentration
# Experimental: 1.0 mM dithiothreitol (DTT) was prepared fresh daily in 0.1% polyethylene glycol (mw 8000) 80 mM NaOAc, 160 mM NaCl, 1.0 mM EDTA, and brought to pH 4.7 with HCl. […] The reaction is incubated for 5 minutes at 37° C. […] The amount of proteolysis is then determined by separation of noncleaved substrate and two cleaved products with reverse-phase HPLC, while measuring absorbance at 220 nm to determine the relative peak areas of the three components. […]

{"columns": ["smiles_code", "IC50"],
 "data": [
  ["O=C(O)c1cccc(OCCCc2c(O)c3ccccc3oc2=O)c1", "5000 nM"],
  ["COc1ccccc1CCCCc1c(O)c2ccc(O)cc2oc1=O", "500 nM"],
  ["O=c1oc2ccccc2c(O)c1CCCOc1cccc(CO)c1", "1200 nM"],
  ["COc1ccccc1CCCCc1c(O)c2ccccc2oc1=O", "1700 nM"],
  ["O=c1oc2ccccc2c(O)c1CCCCc1ccccc1O", "2800 nM"],
  ["COc1ccccc1CCCCc1c(O)c2cccc(C)c2oc1=O", "5000 nM"],
  ["COc1ccc(OCCCc2c(O)c3ccccc3oc2=O)cc1", "1900 nM"]
]}
